- target.desc: human NUDT5 (Homo sapiens)
- Construct: His-tag (N); made in house; host or cells: E. coli BL21 (DE3) R3 pRARE2
- method.summary: enzyme-coupled malachite green assay (MG assay), ADPR hydrolysis
- Type: biochemical
- run.parameters: NUDT5, ADPR substrate; read-out: MG assay IC50 (Biochemical IC50)
pIC50: −log10 of the molar value.
Listed here: items and their measured pIC50.
property.label: pIC50

Cc1cccc(-c2nnc(Cn3c(N(C)C)nc4c3c(=O)n(C)c(=O)n4C)o2)c1 [TH1713]	7.15
Cn1c(=O)c2c(ncn2Cc2nnc(-c3ccc(Cl)c(Cl)c3)o2)n(C)c1=O [TH1533]	7.15
CCN1CCN(c2nc3c(c(=O)n(C)c(=O)n3C)n2Cc2nnc(-c3ccc(Cl)c(Cl)c3)o2)CC1 [TH5424]	7.41
